This collection of values is drawn from paper PMC3702509.

Target: T1, Parkin domain R0RBR (residues 141-465) (human, UniProt O60260-1 141-465)
T1 construct: Parkin residues 141-465 (NM_004562.1), R0, R1, IBR and R2 domains; Cloned into the Champion pET SUMO vector; The Sumo tag was removed with SENP1, and the protein is called untagged in the SPR methods; also called R0RBR Domain; source: E. coli BL21 DE3, purified (Ni sepharose, Mono Q, SENP1 cleavage, Superdex 200)
T1 sequence (looked up): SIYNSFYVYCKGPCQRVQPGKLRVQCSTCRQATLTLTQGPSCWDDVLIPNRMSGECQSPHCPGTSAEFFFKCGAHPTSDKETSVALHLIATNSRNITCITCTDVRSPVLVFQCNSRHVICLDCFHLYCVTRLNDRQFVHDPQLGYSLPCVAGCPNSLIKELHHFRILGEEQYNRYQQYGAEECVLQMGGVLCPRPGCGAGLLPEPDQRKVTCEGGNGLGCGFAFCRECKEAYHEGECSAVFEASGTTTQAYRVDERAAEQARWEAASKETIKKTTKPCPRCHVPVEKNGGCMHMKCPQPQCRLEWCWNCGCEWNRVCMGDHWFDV
Test: SPR; untagged R0RBR immobilised by amine coupling (10 mM acetic acid pH 5.0) on a CM5 chip; protein ligands injected; 25°C; 10 mM HEPES pH 7.4, 150 mM NaCl, 0.005% Tween-20, 4 mM reducing agent; 1:1 binding model
Settings: both partners purified
measured.parameter: pKd
Field pKd (float): negative decimal logarithm of the concentration in molar.

Sure, the documented pKd for His-tagged ubiquitin-like domain of Parkin (UblD, residues 1-76) (domain or fragment, human, UniProt O60260-1 1-76, looked up, Parkin residues 1-76 (NM_004562.1), ubiquitin-like domain; also called His-UblD; source: E. coli BL21 DE3, purified (nickel sepharose, dialysed for Biacore); not shown: His6, C-terminal, kept) MIVFVRFNSSHGFPVEVDSDTSIFQLKEVVAKRQGVPADQLRVIFAGKELRNDWTVQNCDLDQQSIVHIVQRPWRK is 5.22
